- experimental_target: UniProt:P33261
- Sequence (P33261 whole entry): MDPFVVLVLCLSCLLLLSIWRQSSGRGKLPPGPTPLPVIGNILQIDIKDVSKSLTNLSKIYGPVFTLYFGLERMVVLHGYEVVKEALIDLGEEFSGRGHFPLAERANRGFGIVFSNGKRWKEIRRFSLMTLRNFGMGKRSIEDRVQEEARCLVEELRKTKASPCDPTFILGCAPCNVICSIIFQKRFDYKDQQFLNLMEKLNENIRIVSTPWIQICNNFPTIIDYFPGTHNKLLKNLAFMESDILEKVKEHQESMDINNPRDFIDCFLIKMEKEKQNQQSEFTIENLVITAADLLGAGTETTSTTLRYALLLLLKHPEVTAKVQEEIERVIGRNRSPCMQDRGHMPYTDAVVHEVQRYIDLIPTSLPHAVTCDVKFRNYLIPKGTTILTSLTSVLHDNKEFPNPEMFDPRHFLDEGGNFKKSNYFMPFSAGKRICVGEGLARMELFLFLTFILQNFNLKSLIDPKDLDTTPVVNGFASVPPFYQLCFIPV
- test_protocol: Metabolism by recombinant CYP2C19
- Type: in vitro ADME
readout_kind: remaining at 0.5 h, 2 µM (%)
One number for each entry, in %.

Q. Which remaining at 0.5 h, 2 µM is reported with UniProt:P33261 for this entry: Cc1ccc2c(c1)c1c(n2CCc2ccccc2)CCN(C)C1 [AVN-101] ?
A. 1

* * *

- test_protocol: Pharmacokinetics in Wistar rats, IV/IP/PO
- Format: in vivo
- condition_label: Wistar, rat, plasma, po, 5 mg/kg, AUC0 ⟶240, PO 5 mg/kg
readout_kind: AUC (ng·h/mL)
Numbers only, in ng·h/mL.

Q. Which value of AUC has been reported for Cc1ccc2c(c1)c1c(n2CCc2ccccc2)CCN(C)C1 in the records?
A. 614

This collection of values is drawn from paper PMC4969713.
